Target: UniProt P46059
Sequence (P46059 whole entry): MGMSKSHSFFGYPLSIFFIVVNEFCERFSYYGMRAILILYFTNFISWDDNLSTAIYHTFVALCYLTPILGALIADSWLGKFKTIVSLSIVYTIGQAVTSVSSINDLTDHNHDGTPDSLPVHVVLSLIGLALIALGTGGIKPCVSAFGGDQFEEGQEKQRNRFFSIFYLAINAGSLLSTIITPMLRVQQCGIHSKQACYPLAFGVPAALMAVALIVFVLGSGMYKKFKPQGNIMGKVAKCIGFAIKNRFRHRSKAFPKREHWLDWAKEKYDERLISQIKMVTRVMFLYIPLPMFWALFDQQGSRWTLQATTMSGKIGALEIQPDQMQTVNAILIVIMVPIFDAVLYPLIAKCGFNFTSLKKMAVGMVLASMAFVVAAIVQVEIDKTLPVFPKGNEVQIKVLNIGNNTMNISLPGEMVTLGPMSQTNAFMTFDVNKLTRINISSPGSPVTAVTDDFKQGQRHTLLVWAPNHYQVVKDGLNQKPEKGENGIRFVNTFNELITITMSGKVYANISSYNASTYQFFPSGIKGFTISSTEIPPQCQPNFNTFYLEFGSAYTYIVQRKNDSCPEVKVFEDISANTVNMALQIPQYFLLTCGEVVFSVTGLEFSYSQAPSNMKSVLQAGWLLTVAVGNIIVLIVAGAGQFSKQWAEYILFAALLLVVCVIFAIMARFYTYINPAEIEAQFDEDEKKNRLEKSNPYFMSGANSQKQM
Where a SMILES comes first, the peptide text is derived from it. [ ]: non-standard residue; d: D form. Aib = CC(C)(N)C(=O)O
value.kind: pKi
# pKi is unitless: minus log10 of the molar concentration; print number only

Look over these answered cases.
>>> df
                                   molecule  value_kind  observed_result
0  C[C@H](NC(=O)[C@@H](N)Cc1ccc(Cc2ccccc2)cc1)C(=O)O         pKi             4.70
1  C[C@H](N)C(=O)N[C@@H](CCC(=O)O)C(=O)O (H-Ala-Glu-OH)         pKi             3.49
2  CCC(C)C(N)C(=O)N1CCSC1 (stereo not given)         pKi             2.20
3  C[C@H](NC(=O)[C@@H](N)Cc1c[nH]cn1)C(=O)O (H-His-Ala-OH)         pKi             3.32
4  C[C@@H](N)C(=O)N1CCC[C@H]1C(=O)O (stereo in doubt; 56)         pKi             2.31
5  N[C@@H](Cc1ccccc1)C(=O)N[C@@H](Cc1ccccc1)C(=O)O (H-Phe-Phe-OH)         pKi             3.96

// query Which value of pKi has been reported for O=C(O)[C@H](Cc1ccc(O)cc1)NC(=O)[C@@H]1CCCN1 (H-Pro-Tyr-OH) in the records?
// result 3.14

// query Entry COC(=O)c1ccccc1NC(=O)C(C)N (stereo not given) please
// result 3.05

// query Entry C[C@H](N)C(=O)NC(C)(C)C(=O)O (H-Ala-[Aib]-OH) please
// result 2.92

====

Where a SMILES comes first, the peptide text is derived from it. [ ]: non-standard residue; d: D form. Sar = CNCC(=O)O
pKi tested on Solute carrier family 15 member 1 (Homo sapiens, UniProt P46059): recorded values
# pKi is unitless: minus log10 of the molar concentration; print number only

>>> df
                                   molecule  observed_result
0  COC(=O)c1cccc(NC(=O)C(C)N)c1 (stereo unspecified)             2.16
1  C[C@H](NC(=O)[C@@H](C)N)C(=O)O (H-[dA]-Ala-OH)             2.70
2  CC(N)C(=O)Nc1ccccc1C(=O)O (stereo unspecified)             2.55

// query Which value of pKi has been reported for C[C@H](NC(=O)[C@@H](N)CC(=O)O)C(N)=O (H-Asp-Ala-NH2) in the records?
// result 2.27

// query Entry CNCC(=O)N1CCC[C@H]1C(=O)O (H-[Sar]-Pro-OH) please
// result 2.80

// query Entry C[C@H](NC(=O)[C@@H]1CCCN1)C(=O)O (H-Pro-Ala-OH) please
// result 2.02

====

pKi tested on Solute carrier family 15 member 1 (Homo sapiens, UniProt P46059): recorded values
Where a SMILES comes first, the peptide text is derived from it. [ ]: non-standard residue; d: D form. Sar = CNCC(=O)O
# pKi is unitless: minus log10 of the molar concentration; print number only

In [3]: df
Out[3]:
                                   molecule  observed_result
0  CCC(C)C(N)C(=O)N1CCCCC1 (configuration not stated)             2.25
1  C[C@H](N)C(=O)N(C)CC(=O)O (H-Ala-[Sar]-OH)             3.60
2  CC(N)C(=O)Nc1ccccc1-c1ccccc1 (configuration not stated)             1.78
3  O=C(O)CNC(=O)[C@@H]1CCCN1 (H-Pro-Gly-OH)             1.66
4  CC(C)CC(NC(=O)C(O)C(N)Cc1ccccc1)C(=O)O (configuration not stated)             3.40
5  CC1NC(=O)C(CCCN)NC1=O (configuration not stated)             2.64

// query Record C[C@H](N)C(=O)N[C@@H](Cc1c[nH]cn1)C(=O)O (H-Ala-His-OH) : what is its pKi with Solute carrier family 15 member 1 (Homo sapiens, UniProt P46059)?
// result 3.48

// query Entry CC(C)C[C@H](NC(=O)[C@@H]1CCCN1)C(=O)O (H-Pro-Leu-OH) please
// result 3.33

====

Target: Solute carrier family 15 member 1 (Homo sapiens)
Sequence (P46059 whole entry): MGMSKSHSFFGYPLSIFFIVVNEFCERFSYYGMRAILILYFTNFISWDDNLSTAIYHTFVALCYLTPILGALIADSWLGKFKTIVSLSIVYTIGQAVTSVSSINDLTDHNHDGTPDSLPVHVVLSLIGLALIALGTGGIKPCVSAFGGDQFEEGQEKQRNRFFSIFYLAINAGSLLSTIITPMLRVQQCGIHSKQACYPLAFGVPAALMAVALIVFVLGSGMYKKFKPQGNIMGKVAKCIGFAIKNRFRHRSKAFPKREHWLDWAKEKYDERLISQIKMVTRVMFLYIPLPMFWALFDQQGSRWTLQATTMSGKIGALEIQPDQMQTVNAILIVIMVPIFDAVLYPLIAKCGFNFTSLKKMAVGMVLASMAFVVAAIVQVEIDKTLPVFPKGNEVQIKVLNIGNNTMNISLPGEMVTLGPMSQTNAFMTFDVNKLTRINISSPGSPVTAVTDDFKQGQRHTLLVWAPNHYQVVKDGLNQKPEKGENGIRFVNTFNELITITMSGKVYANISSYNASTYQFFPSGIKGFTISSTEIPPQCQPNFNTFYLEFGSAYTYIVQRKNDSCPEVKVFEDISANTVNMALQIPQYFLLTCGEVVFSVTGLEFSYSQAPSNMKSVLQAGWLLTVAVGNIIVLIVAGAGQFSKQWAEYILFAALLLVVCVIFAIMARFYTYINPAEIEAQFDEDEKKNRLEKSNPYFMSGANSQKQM
Where a SMILES comes first, the peptide text is derived from it. [ ]: non-standard residue; d: D form. Bip = N[C@@H](Cc1ccc(-c2ccccc2)cc1)C(=O)O
value.kind: log10 Ki (log10 of the value in µM)
For clarity, the numbers are log10 values of Ki expressed in µM.

// query Which value of log10 Ki has been reported for C[C@H](NC(=O)[C@@H](N)CC(=O)O)C(=O)O (H-Asp-Ala-OH) in the records?
// result 2.51

// query Entry C[C@H](NC(=O)[C@@H](N)Cc1ccc(-c2ccccc2)cc1)C(=O)O (H-[Bip]-Ala-OH) please
// result 1.30

// query Entry CC(C)[C@H](N)C(=O)N[C@@H](C)C(=O)O (H-Val-Ala-OH) please
// result 1.95

// query Entry C[C@H](N)C(=O)N[C@@H](CC(=O)O)C(=O)O (H-Ala-Asp-OH) please
// result 2.41

// query Entry C[C@H](N)C(=O)N[C@H](C)C(=O)O (H-Ala-[dA]-OH) please
// result 3.62

// query Entry N[C@@H](CC(=O)O)C(=O)N[C@@H](CC(=O)O)C(=O)O (H-Asp-Asp-OH) please
// result 2.61

// query Entry CC(N)C(=O)N1CCCCC1 (stereo unspecified) please
// result 4.11

// query Entry CN(CC(=O)O)C(=O)[C@@H](N)Cc1ccccc1 please
// result 2.32

// query Entry CC(C)C[C@H](N)C(=O)N1CCC[C@H]1C(=O)O (H-Leu-Pro-OH) please
// result 2.04

// query Entry C[C@H](NC(=O)[C@@H](N)Cc1ccc(O)cc1)C(=O)O please
// result 1.95

// query Entry CNCC(=O)N(C)CC(=O)O please
// result 4.51
